# assay_target: human CCR1 (Homo sapiens, UniProt P32246)
# Sequence (P32246 whole entry): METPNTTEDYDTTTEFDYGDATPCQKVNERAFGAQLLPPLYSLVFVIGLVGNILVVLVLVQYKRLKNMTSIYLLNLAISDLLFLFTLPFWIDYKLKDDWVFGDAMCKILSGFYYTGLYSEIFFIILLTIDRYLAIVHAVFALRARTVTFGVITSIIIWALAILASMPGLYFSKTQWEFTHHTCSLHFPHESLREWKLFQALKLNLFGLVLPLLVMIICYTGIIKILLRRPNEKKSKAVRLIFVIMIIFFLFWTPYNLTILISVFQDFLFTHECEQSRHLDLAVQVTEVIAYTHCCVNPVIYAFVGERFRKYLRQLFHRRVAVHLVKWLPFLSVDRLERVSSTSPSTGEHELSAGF
# assay_method_text: [3H]-CCR2-RA-[R] displacement binding assay on U2OS-CCR1 membranes
# conditions_used: CCR1; [3H]-CCR2-RA-[R] binding, U2OS membranes, 25 °C
Attribute: pKi ± SEM
observed_property: pKi ± SEM

{"molecule": "COC(=O)c1c(-c2ccno2)[nH]c(=S)n1CCCc1ccc(F)c(F)c1", "meas_value": 6.9}
{"molecule": "CCC(=O)C1=C(O)C(=O)N(c2ccc(C)cc2)C1C1CCCCC1 (centres unmarked)", "meas_value": 7.52}
{"molecule": "CC(=O)C1=C(O)C(=O)N(c2ccc(C)c(C)c2)C1C1CCCCC1 (centres unmarked)", "meas_value": 7.37}
{"molecule": "O=C(C1=C(O)C(=O)N(c2ccc(Br)cc2F)C1C1CCCCC1)c1ccccc1 (centres unmarked)", "meas_value": 7.56}
{"molecule": "CC(=O)C1=C(O)C(=O)N(c2ccc(Br)cc2F)C1c1cccc(Br)c1 (centres unmarked)", "meas_value": 7.19}
